target: hA2BR (Homo sapiens, UniProt P29275); experiment: Saturation binding on whole yeast cells expressing the hA2BR; conditions: read-out: K D, yeast
Sequence (P29275 whole entry): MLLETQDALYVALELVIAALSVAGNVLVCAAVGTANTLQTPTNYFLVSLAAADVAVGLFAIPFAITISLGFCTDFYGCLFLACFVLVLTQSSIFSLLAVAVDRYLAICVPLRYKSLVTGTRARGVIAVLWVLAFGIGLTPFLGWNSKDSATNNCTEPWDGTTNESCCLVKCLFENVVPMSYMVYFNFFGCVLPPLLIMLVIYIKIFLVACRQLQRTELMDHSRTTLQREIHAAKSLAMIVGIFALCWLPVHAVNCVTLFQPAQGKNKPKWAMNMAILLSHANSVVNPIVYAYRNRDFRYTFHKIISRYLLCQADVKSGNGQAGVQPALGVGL
metric: Kd (nM)
Number only, in nM; omit the unit.

Given the compound CCCn1c(=O)[nH]c2nc(-c3ccc(S(=O)(=O)N4CCN(c5ccc(Cl)cc5)CC4)cc3)[nH]c2c1=O [[^3H]PSB-603] , what is its reported Kd?
0.81
